Hello, the source for this data is PubChem BioAssay (NCI), in case you need it.

System: NCI-H522 lung
Test Name: NCI tumour cell line growth inhibition, 48 h; in the data active = GI50 below about 0.43 µM; inactive = the rest
Outcome codes: YES (active), NO (inactive)

Molecule	Discrete Label
COc1cccc(Cn2cc3c(c2)-c2oncc2CC3)c1	YES
Cc1ccc(C2SCc3nc4ccc(C(=O)c5ccccc5)cc4n32)cc1 (stereo not given)	NO
O=C(c1ccco1)c1c(C(F)(F)F)nc2cc(C(F)(F)F)ccc2[n+]1[O-]	NO
CCCC(=O)NC(c1ccc2c(c1)OCO2)c1ccc2cccnc2c1O (stereo not given)	NO
O=C1C(Cl)=C(Nc2cccc(C(F)(F)F)c2)C(=O)N1Cc1ccccc1Cl	NO
COc1cc(/C=C2\CC3C4CC=C5C[C@@H](N6CCCC6)CC[C@]5(C)C4CC[C@]3(C)[C@H]2OC(C)=O)ccc1OCCN1CCCCC1 (stereo not given in full)	NO
O=C(Nc1cccc2cccnc12)c1ccc(N2C(=O)[C@@H]3[C@H](C2=O)[C@@H]2C=C[C@H]3C2)cc1	NO
Cc1ccc2[nH]c(C(=O)NN3C(=O)CSC34CCCC(C)C4)c(-c3ccccc3)c2c1 (stereo not given)	NO
O=C(O)c1ccc(-c2ccc(C(=O)O)cc2I)c(I)c1	NO
C[C@@H]1CC[C@H]2C(COC/C=C/COCC3=C(C(F)(F)F)O[C@@H]4O[C@@]5(C)CC[C@H]6[C@H](C)CC[C@@H]3[C@@]46OO5)=C(C(F)(F)F)O[C@@H]3O[C@@]4(C)CC[C@@H]1[C@]32OO4	YES
CCCC[P+](c1ccccc1)(c1ccccc1)c1ccccc1	NO
Cc1c2ncccc2nc2[nH]c3ccc(OCCN(C)C)cc3c12	NO
COC(=O)c1c2c(c(C)[n+]([O-])c1C)C(=O)C(NCc1cccc(OC)c1)=CC2=O	NO
O=C(NCCCNC(=O)OCc1ccc2c(Br)cc(Br)c(O)c2n1)OCc1ccc2c(Br)cc(Br)c(O)c2n1	NO
O=C(NCCN1CCOCC1)Nc1ccc(-c2cc3c(Nc4ccc(Oc5cccc(C(F)(F)F)c5)c(Cl)c4)ncnc3s2)cc1	NO
COc1ccc(NC(=O)Nc2ccc(Nc3nc(C)cc(Nc4ccc(C)cc4)n3)cc2)cc1	NO
COc1cc(-c2nn(C(=O)NS(=O)(=O)c3ccc(C)cc3)cc2-c2ccncc2)ccc1Cl	NO
CN(C)CCOc1nc2c3cccnc3cc(-c3cccc(Cl)c3)c2c2ncccc12	NO
CCCCCCNC(=O)Oc1ccc(/C(=C(\C)c2ccccc2)c2ccc(OCCN3CCCCC3)cc2)cc1	NO
Oc1ccc(Br)cc1/C=N/NC(=S)NC12CC3CC(CC(C3)C1)C2	NO
